System: YT (Other Blood Carcinomas)
Assay Procedure: Bliss excess, mean over the matrix (fraction); higher = more synergy;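 note: after 72 h of two-drug dosing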
Parameter Bliss excess: see the listing below.

Compound	Experimental Target	Bliss excess
COc1nnc2ccc(N3CCC(c4ccc(OCCN5CCN(C)C(=O)[C@H]5C)cc4)CC3)nn12 [AZD5153] + CCN(CCO)CCCOc1ccc2c(Nc3cc(CC(=O)Nc4cccc(F)c4)[nH]n3)ncnc2c1 [AZD2811] (first compound max 1 µM, 7x7, partner max 1 µM)	YT (Other Blood Carcinomas)	-0.0579
C[C@@H](Nc1cc(F)cc(F)c1)c1cc(C(=O)N(C)C)cc2c(=O)cc(N3CCOCC3)oc12 [AZD8186] + CC(=O)c1c(C)c2cnc(Nc3ccc(N4CCNCC4)cn3)nc2n(C2CCCC2)c1=O [Palbociclib] (first compound max 10 µM, 7x7, partner max 10 µM)	YT (Other Blood Carcinomas)	0.0407
Cc1c2c(nn1C)CSCc1cc(n(C)n1)CSc1cc(c3ccccc3c1)OCCCc1c(C(=O)O)n(C)c3c-2c(Cl)ccc13 [AZD5991] + CS(=O)(=O)CCNCc1ccc(-c2ccc3ncnc(Nc4ccc(OCc5cccc(F)c5)c(Cl)c4)c3c2)o1 [Lapatinib] (first compound max 1 µM, 7x7, partner max 10 µM)	YT (Other Blood Carcinomas)	0.0331
O=C(c1cc(Cc2n[nH]c(=O)c3ccccc23)ccc1F)N1CCN(C(=O)C2CC2)CC1 [Olaparib] + CN(CC[C@H](CSC1=CC=CC=C1)NC2=C(C=C(C=C2)S(=O)(=O)NC(=O)C3=CC=C(C=C3)N4CCC(CC4)[C@H](C5=CC=CC=C5C6=CC=C(C=C6)Cl)O)S(=O)(=O)C(F)(F)F)CCO [AZD4320] (first compound max 10 µM, 7x7, partner max 1 µM)	YT (Other Blood Carcinomas)	-0.0505
